Molecular target: T1, human CD19 (human, UniProt P15391 20-556)
T1 construct: also called B-cell surface antigen B4; B-cell antigen CD19
T1 sequence: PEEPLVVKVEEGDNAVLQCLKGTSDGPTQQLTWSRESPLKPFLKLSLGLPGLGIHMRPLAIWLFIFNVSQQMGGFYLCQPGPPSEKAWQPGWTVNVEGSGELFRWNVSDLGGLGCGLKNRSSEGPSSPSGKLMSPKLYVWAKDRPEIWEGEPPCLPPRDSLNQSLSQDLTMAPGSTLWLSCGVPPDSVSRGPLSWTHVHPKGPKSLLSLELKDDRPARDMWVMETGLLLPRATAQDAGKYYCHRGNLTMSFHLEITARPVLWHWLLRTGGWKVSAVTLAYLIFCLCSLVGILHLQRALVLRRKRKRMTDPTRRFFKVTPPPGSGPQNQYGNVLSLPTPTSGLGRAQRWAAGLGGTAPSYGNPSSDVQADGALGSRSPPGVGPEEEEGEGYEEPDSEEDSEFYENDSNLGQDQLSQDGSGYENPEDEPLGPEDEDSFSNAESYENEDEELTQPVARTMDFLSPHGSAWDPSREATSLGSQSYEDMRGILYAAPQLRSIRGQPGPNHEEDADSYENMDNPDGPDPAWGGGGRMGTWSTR
Assay: DELFIA competition on Raji cells: unlabeled antibody competes with Eu-labeled anti-CD19 for surface CD19 [upper panel]
readout.name: binding result

INSERT INTO results (binder, reported) VALUES
  ('H2L1 (antibody, V domains shown, also called 4G7 H2L1) VH: QVQLQESGSGLVKPGGSLRLSCAASGYTFTSYVMHWVRQAPGKGLEWMGYINPYNDGTKYNESLKSRVTISSDKSISTAYMELSSLRAEDTAVYYCARGTYYYGSRVFDYWGQGTLVTVSS VL: DIVMTQSPATLSLSPGERATLSCRSSKSLLNSNGNTYLYWFQQKPGQSPQLLIYRMSNLASGVPDRFSGSGSGTEFTLTISSLEPEDFAVYYCMQHLEYPFTFGAGTKLEIK', 'binds'),
  ('H2L2 (antibody, V domains shown, also called 4G7 H2L2) VH: QVQLQESGSGLVKPGGSLRLSCAASGYTFTSYVMHWVRQAPGKGLEWMGYINPYNDGTKYNESLKSRVTISSDKSISTAYMELSSLRAEDTAVYYCARGTYYYGSRVFDYWGQGTLVTVSS VL: DIVMTQSPSSLSASVGDRVTISCRSSKSLLNSNGNTYLYWFQQKPGQSPQLLIYRMSNLASGVPDRFSGSGSGTEFTLTISSLQPEDVAVYYCMQHLEYPFTFGAGTKLEIK', 'binds'),
  ('H3L1 (antibody, V domains shown, also called 4G7 H3L1) VH: EVQLVESGGGLVQPGRSLRLSCAASGYTFTSYVMHWVRQMPGKGLEWMGYINPYNDGTKYNEKFQGRVTITSDKSTSTAYMELSRLRSDDTAVYYCARGTYYYGSRVFDYWGQGTLVTVSS VL: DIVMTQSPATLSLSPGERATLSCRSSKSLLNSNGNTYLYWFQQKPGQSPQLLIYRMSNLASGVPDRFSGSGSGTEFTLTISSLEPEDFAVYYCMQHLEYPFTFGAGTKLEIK', 'binds');
